// reported pIC50 for each item listed
Test system: A549
Assay: Cytotoxicity against human A549 cells after 72 hrs by MTT assay
Assay type: functional, cell-based
Conditions: A549, 72 h
On this scale, pIC50 is minus log10 of a concentration expressed in M (mol/L).

| molecule | measValue |
| --- | --- |
| COc1c(OCC=C(C)C)ccc2ccc(=O)oc12 [LACINARTIN] | 4.02 |
| CC(C)=CCC/C(C)=C/CC/C(C)=C/COc1ccc2ccc(=O)oc2c1 [UMBELLIPRENIN] | 4.15 |
| COc1cc(/C=C/C=O)cc(OC)c1OCC=C(C)C | 4.17 |

CC(=O)c1c(O)cc(O)cc1O [2,4,6-TRIHYDROXYACETOPHENONE] yielded pIC50 of 4.00

====

System: A549
Experiment: Cytotoxicity against human A549 cells after 72 hrs by MTT assay
Type: functional, cell-based
Details: A549, 72 h
endpoint: IC50 (µM)
# number only, unit µM dropped from output

| smilesEntry | testedOn | units | measValue |
| --- | --- | --- | --- |
| CC(C)=CCOc1cc(O)c2c(c1)C(=O)c1cc(C)cc(O)c1C2=O | A549 | µM | 20 |

Attention now shifts to the item below.
COc1cc(/C=C/C=O)cc(OC)c1OC/C=C(\C)CCC=C(C)C yielded IC50 of 71

====

Test: Cytotoxicity against human U373 cells after 72 hrs by MTT assay
Type: functional, cell-based, U-373MG ATCC
Details: U373 MG
endpoint: IC50 (µM)
# number only, unit µM dropped from output

| smilesEntry | IC50 (µM) |
| --- | --- |
| COc1cc(/C=C/CO)ccc1OC/C=C(\C)CCC=C(C)C | 25 |
| CC(=O)c1ccc(OC/C=C(\C)CCC=C(C)C)cc1O | 48 |

Attention now shifts to the item below.
CC(C)=CCOc1ccc(C(=O)/C=C/c2ccc(O)cc2)c(O)c1 yielded IC50 of 87

====

Tested on: SK-MEL-28
Assay: Cytotoxicity against human SK-MEL-28 cells after 72 hrs by MTT assay
Format: functional, cell-based
Conditions: SK-MEL-28, 72 h
pIC50: −log10 of the molar value.
// reported pIC50 for each item listed

| compound | testedOn | pIC50 |
| --- | --- | --- |
| CC(C)=CCOc1ccc(C(=O)/C=C/c2ccc(O)cc2)c(O)c1 | SK-MEL-28 | < 4.00 |
| COc1cc(/C=C/C=O)cc(OC)c1O | SK-MEL-28 | 4.18 |
| CC(C)=CCOc1cc(O)c2c(c1)C(=O)c1cc(C)cc(O)c1C2=O [MADAGASCIN] | SK-MEL-28 | 5.15 |
| COc1cc(/C=C/CO)ccc1O [CONIFERYL ALCOHOL] | SK-MEL-28 | < 4.00 |
| COc1cc(C(=O)O)ccc1OCC=C(C)C | SK-MEL-28 | < 4.00 |

Attention now shifts to the item below.
COc1cc(/C=C/CO)cc(OC)c1OCC=C(C)C yielded pIC50 of < 4.00

====

Test: Cytotoxicity against human U373 cells after 72 hrs by MTT assay
Type: functional, cell-based, U-373MG ATCC
Settings: U373 MG
endpoint: pIC50
On this scale, pIC50 is minus log10 of a concentration expressed in M (mol/L).

Study these solved cases before continuing.
| smilesEntry | pIC50 |
| --- | --- |
| COc1cc(/C=C/C=O)cc(OC)c1O | 4.25 |
| COc1cc(/C=C/C=O)ccc1O | 4.55 |

CC(=O)c1c(O)cc(OC/C=C(\C)CCC=C(C)C)cc1O yielded pIC50 of 4.54

CC(C)=CCC/C(C)=C/COc1ccc2ccc(=O)oc2c1 yielded pIC50 of 4.09

COc1cc(/C=C/CO)cc(OC)c1OC/C=C(\C)CCC=C(C)C yielded pIC50 of 4.38

CC(=O)c1c(O)cc(OC/C=C(\C)CC/C=C(\C)CCC=C(C)C)cc1O yielded pIC50 of 4.48
